Tested on: NCI-H226 lung
method: NCI tumour cell line growth inhibition, 48 h
assay.endpoint: TGI

Q: Write down TGI measured for item C=C(CNC(=O)Nc1ccc(-c2ccccc2)cc1)c1ccc(C(=O)Nc2ccccc2N)cc1
Ans: > 100 µM

Q: Write down TGI measured for item C1=C\SS/C=C\SS/C=C\SS/C=C\SS/1
Ans: > 100 µM

Q: Write down TGI measured for item CC1=CCC[C@@]2(C)C(CC[C@@H]2C(C)/C=C/C(C)C)c2ccc(cc2C(=O)O)C[C@@H](O)CC1 (some centres not stated)
Ans: 32.7 µM

Q: Write down TGI measured for item CCOC(=O)c1cnc(-n2[nH]c(C)c(CCO)c2=O)[nH]c1=O
Ans: > 100 µM

Q: Write down TGI measured for item CCC(C)CN1C(=O)NC(C)(Cc2ccccc2)C1=O (configuration not stated)
Ans: > 100 µM

Q: Write down TGI measured for item O=c1[nH]c(=O)n(C2CC(O)C(CO)O2)cc1I (configuration not stated)
Ans: > 100 µM

Q: Write down TGI measured for item O=C(O)c1ccccc1Cc1ccco1
Ans: > 100 µM

Q: Write down TGI measured for item COC(=O)[C@@H](NC(=O)NC(=O)NC(=O)CI)C(C)C
Ans: 38.4 µM

Q: Write down TGI measured for item O=C1C2CCCCC2C(=O)N1n1c(Cc2ccc(Cl)cc2)n[nH]c1=O (configuration not stated)
Ans: > 100 µM

Q: Write down TGI measured for item CN1C/C(=C\c2cccs2)C2=NC(=S)NC(c3cccs3)C2C1 (configuration not stated)
Ans: > 100 µM

Q: Write down TGI measured for item COc1ccc(-c2nc(N)c(C#N)c3c2CCS(=O)(=O)c2ccc(C)cc2-3)cc1OC
Ans: > 100 µM

Q: Write down TGI measured for item CCCCNC1CCC2(SCCS2)c2[nH]c3ccccc3c21 (configuration not stated)
Ans: > 73.7 µM

----------
Tested on: SK-OV-3 ovarian
method: NCI tumour cell line growth inhibition, 48 h
assay.endpoint: TGI

Q: Write down TGI measured for item C1OCC2S[C@@H]3COCO[C@@H]3C2O1 (stereo not given in full)
Ans: > 100 µM

Q: Write down TGI measured for item CC(=O)OCC1OC(Nc2[nH]c(=O)n(C)c(=O)c2-c2csc(N)n2)C(OC(C)=O)C(OC(C)=O)C1OC(C)=O (stereo not given)
Ans: > 100 µM

Q: Write down TGI measured for item Cc1nc2ccc(CN(C)c3ccc(C(=O)N[C@@H](CCC(=O)O)C(=O)O)s3)cc2c(=O)[nH]1
Ans: > 100 µM

Q: Write down TGI measured for item Cc1ccccc1NC(=S)Nc1ccccn1
Ans: > 100 µM

Q: Write down TGI measured for item Nc1nc(N)c2ncn(CC3CCC(CO)C3)c2n1 (stereo not given)
Ans: > 100 µM

Q: Write down TGI measured for item O=C(CC1=Nc2nnc(-c3nnc4n3C(=O)C(CC(=O)c3cccnc3)=N4)n2C1=O)c1cccnc1
Ans: > 100 µM

Q: Write down TGI measured for item COCOc1ccc(C(=O)C(C)c2ccc(OCOC)cc2OCOC)c(O)c1 (stereo not given)
Ans: > 100 µM

Q: Write down TGI measured for item O=C1c2ccccc2C2CNC1(O)c1ccccc12 (stereo not given)
Ans: > 100 µM

Q: Write down TGI measured for item Clc1ccc2c(SCC3CO3)c3ccccc3nc2c1 (stereo not given)
Ans: 53.4 µM

Q: Write down TGI measured for item O=C(/C=C/c1ccc(B(O)O)cc1)/C=C/c1ccc(B(O)O)cc1
Ans: 14.5 µM

Q: Write down TGI measured for item COc1cc2c(cc1OCCCN1CCN(CCCOc3cc4c(cc3OC)C(=O)N3CCC[C@H]3C=N4)CC1)C=CC(C)(C)O2
Ans: 2.99 µM

Q: Write down TGI measured for item CO/C(=N\N=C\c1cc(OC)ccc1OC)c1ccncc1
Ans: > 10 µM

Q: Write down TGI measured for item Cc1c2cc(Cl)ccc2n2c(=O)c3ccccc3[nH]c(=O)c12
Ans: > 100 µM

Q: Write down TGI measured for item C=CCC1(O)c2ccccc2C(=O)c2c(O)ccc(O)c21 (stereo not given)
Ans: 40.7 µM

Q: Write down TGI measured for item N#C/C(=C\c1ccccc1O)C(N)=O
Ans: > 100 µM

----------
Test system: M14 melanoma
method: NCI tumour cell line growth inhibition, 48 h
assay.endpoint: TGI

Q: Write down TGI measured for item C1CC2=C(C1)[Se]C(=C1Sc3nsnc3S1)[Se]2
Ans: > 100 µM

Q: Write down TGI measured for item CC(=O)OCC1OC(Nc2[nH]c(=O)n(C)c(=O)c2-c2csc(N)n2)C(OC(C)=O)C(OC(C)=O)C1OC(C)=O (stereo unspecified)
Ans: > 100 µM

Q: Write down TGI measured for item O=c1[nH]c(=O)n(C2CC(O)C(CO)O2)cc1I (stereo unspecified)
Ans: > 100 µM

Q: Write down TGI measured for item O=C1C(N2CCCC2)=CC(=O)c2c(O)c(N3CCCC3)c(Cl)c(O)c21
Ans: > 10 µM

Q: Write down TGI measured for item C=C(C)C(=O)CC[C@@H](C)[C@H]1[C@@H](OC2OC(CO)C(O)C(O)C2O)C[C@@]2(C)[C@@H]3C[C@H](O)C4C(C)(C)[C@@H](OC5OC(CO)C(O)C(O)C5O)CC[C@@]45C[C@@]35CC[C@]12C (stereo partly specified)
Ans: > 100 µM

Q: Write down TGI measured for item CCCNC1CC(n2cc(C)c(=O)[nH]c2=O)OC1CO (stereo unspecified)
Ans: > 100 µM

Q: Write down TGI measured for item O=C1N[C@H]2c3c(Cl)sc(Cl)c3/C(=N/O)[C@H]2O1
Ans: > 100 µM

Q: Write down TGI measured for item O=C(CP(c1ccccc1)c1ccccc1)c1cccc(C(=O)CP(c2ccccc2)c2ccccc2)c1
Ans: > 100 µM

Q: Write down TGI measured for item Cc1ccc(C)n1-c1ccccc1C1SCCCS1
Ans: > 100 µM

Q: Write down TGI measured for item CCC(C)CN1C(=O)NC(C)(Cc2ccccc2)C1=O (stereo unspecified)
Ans: > 100 µM

Q: Write down TGI measured for item CCOc1ccc(NC(=O)CC2SC(=Nc3ccc(Cl)cc3)NC2=O)cc1 (stereo unspecified)
Ans: > 100 µM

----------
Test system: BT-549 breast
method: NCI tumour cell line growth inhibition, 48 h
assay.endpoint: TGI

Q: Write down TGI measured for item CC(=O)N1CCN(C2=Nc3ccccc3CO2)C1=S
Ans: > 100 µM

Q: Write down TGI measured for item O=C(Cc1ccccc1)NCCc1ccc(O)c(O)c1
Ans: > 100 µM

Q: Write down TGI measured for item OCCOc1ccc(-c2cc(-c3ccccn3)nc(-c3ccccn3)c2)cc1
Ans: > 100 µM

----------
System: SW-620 colon
method: NCI tumour cell line growth inhibition, 48 h
assay.endpoint: TGI

Q: Param request: TGI | system SW-620 colon | item C=C(Cn1c(=O)c2ccccc2c2ccccc21)c1ccc(C(=O)Nc2ccccc2N)cc1
Ans: > 100 µM

Q: Param request: TGI | system SW-620 colon | item COc1ccc2c(c1)C(=O)c1c-2n(CCCN)c(=O)c2ccccc12
Ans: 1.14 µM

Q: Param request: TGI | system SW-620 colon | item Nc1nc2c(=O)c3ccccc3sc2s1
Ans: > 100 µM

Q: Param request: TGI | system SW-620 colon | item CCOC(=O)c1cn(-c2ccccc2)c(=S)n2c1nc1ccccc12
Ans: > 100 µM

Q: Param request: TGI | system SW-620 colon | item C(=Nc1ccccc1)C1CCCC[N-]1.C(=Nc1ccccc1)C1CCCC[N-]1.[Cu+2].[O-][Cl+3]([O-])([O-])O (stereo unspecified)
Ans: 32.4 µM

Q: Param request: TGI | system SW-620 colon | item CCC[CH2][Sn]([CH2]CCC)([O]C(=O)c1c(F)cccc1F)[O]C(=O)c1c(F)cccc1F
Ans: 1.23 µM

Q: Param request: TGI | system SW-620 colon | item Cc1nc2ccc(CN(C)c3ccc(C(=O)N[C@@H](CCC(=O)O)C(=O)O)s3)cc2c(=O)[nH]1
Ans: > 100 µM

Q: Param request: TGI | system SW-620 colon | item c1csc(-c2ccc(-c3ccc(-c4ccc(-c5cccs5)s4)s3)s2)c1
Ans: > 100 µM

Q: Param request: TGI | system SW-620 colon | item O=C(O)CSCc1cccc2ccccc12
Ans: > 100 µM

Q: Param request: TGI | system SW-620 colon | item COc1cc(/C=C/C(=O)OCC23CC[C@@]4(C(=O)O)CCC(C)[C@H](C)C4C2=CCC2[C@@]4(C)CC[C@H](O)C(C)(C)C4CC[C@]23C)ccc1O (stereo partly specified)
Ans: > 100 µM

Q: Param request: TGI | system SW-620 colon | item O=C(Nc1cccc2ccccc12)Oc1ccccc1C1CCCCC1
Ans: 40 µM
